target: cdc28 (S. cerevisiae) (Saccharomyces cerevisiae, UniProt P00546)
Sequence (P00546 whole entry): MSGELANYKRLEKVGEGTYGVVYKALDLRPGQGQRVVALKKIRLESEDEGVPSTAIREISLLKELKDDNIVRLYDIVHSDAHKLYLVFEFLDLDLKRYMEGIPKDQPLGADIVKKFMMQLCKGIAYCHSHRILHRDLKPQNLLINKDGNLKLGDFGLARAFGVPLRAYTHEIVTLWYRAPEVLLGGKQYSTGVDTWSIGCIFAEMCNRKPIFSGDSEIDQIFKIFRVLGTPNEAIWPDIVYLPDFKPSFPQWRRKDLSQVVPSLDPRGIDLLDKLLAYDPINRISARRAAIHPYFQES

compound	IC50 [µM]
CC(C)[C@H](CO)Nc1nc(Nc2ccc(C(=O)O)c(Cl)c2)c2ncn(C(C)C)c2n1 [Purvalanol B]	1.2

====

molecular target: GSK-3 (Homo sapiens, UniProt P49841); test: GSK-3 kinase inhibition (Table 1); assay type: biochemical
Sequence (P49841 whole entry): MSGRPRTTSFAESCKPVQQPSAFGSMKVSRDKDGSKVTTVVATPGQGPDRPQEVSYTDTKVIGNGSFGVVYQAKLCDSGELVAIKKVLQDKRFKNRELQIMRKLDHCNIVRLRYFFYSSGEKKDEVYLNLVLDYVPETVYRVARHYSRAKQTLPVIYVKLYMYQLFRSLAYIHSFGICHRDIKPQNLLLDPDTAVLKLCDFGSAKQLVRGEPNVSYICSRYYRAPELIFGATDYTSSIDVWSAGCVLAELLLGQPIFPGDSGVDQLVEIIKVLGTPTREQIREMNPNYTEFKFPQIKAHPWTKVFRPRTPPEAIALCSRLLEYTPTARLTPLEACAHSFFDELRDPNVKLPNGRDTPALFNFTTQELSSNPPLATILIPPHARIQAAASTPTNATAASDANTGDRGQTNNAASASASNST
metric: IC50

structure as smiles	metric	assay value
COc1ccc(CNc2nc(N(CCO)CCO)nc3c2ncn3C(C)C)cc1	IC50	> 33 µM

====

molecular target: v-ab1 (Abelson murine leukemia virus, UniProt P00521); test: v-ab1 kinase inhibition; format: biochemical
Sequence (P00521 whole entry): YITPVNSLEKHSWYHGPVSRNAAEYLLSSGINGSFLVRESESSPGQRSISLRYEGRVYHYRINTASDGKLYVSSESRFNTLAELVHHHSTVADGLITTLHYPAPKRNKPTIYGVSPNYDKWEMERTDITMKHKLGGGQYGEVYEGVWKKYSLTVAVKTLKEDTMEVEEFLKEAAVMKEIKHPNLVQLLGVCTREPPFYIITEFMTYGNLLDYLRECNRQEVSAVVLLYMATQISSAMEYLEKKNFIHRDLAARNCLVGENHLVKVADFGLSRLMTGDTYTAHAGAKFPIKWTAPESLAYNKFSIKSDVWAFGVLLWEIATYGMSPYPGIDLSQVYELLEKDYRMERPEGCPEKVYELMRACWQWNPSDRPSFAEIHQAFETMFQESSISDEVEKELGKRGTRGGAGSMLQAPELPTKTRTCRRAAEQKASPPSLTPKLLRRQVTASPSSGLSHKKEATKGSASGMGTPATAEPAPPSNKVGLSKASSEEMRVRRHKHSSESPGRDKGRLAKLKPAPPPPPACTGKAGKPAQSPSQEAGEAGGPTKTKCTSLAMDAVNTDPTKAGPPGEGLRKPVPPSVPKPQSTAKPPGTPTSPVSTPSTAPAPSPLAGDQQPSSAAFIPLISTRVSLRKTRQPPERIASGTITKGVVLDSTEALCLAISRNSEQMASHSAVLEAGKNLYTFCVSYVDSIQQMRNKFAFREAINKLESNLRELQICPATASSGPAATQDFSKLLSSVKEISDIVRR
pIC50: −log10 of the molar value.

structure as smiles	target system	pIC50
CC(C)[C@H](CO)Nc1nc(Nc2ccc(C(=O)O)c(Cl)c2)c2ncn(C(C)C)c2n1	v-ab1 (Abelson murine leukemia virus, UniProt P00521)	< 4.00

====

target: c-jun-N-terminal kinase; construct: The recombinant JNK-his6 fusion was produced in E. coli and purified by Ni-agarose chromatography; assay: c-jun-N-terminal kinase inhibition (Table 2); conditions: Table 2, purified kinase
pIC50: −log10 of the molar value.
metric: pIC50

structure as smiles	assay value
CC(C)[C@H](CO)Nc1nc(Nc2ccc(C(=O)O)c(Cl)c2)c2ncn(C(C)C)c2n1	< 5.00

====

target: casein kinase 2; experiment: casein kinase 2 inhibition; conditions: Table 2, purified kinase
pIC50: −log10 of the molar value.

structure as smiles	pIC50
CC(C)[C@H](CO)Nc1nc(Nc2ccc(C(=O)O)c(Cl)c2)c2ncn(C(C)C)c2n1	< 5.00

====

target: cAMP-dependent protein kinase (Bos taurus, UniProt P00517)

compound	target system	IC50 (µM)
CC(C)[C@H](CO)Nc1nc(Nc2ccc(C(=O)O)c(Cl)c2)c2ncn(C(C)C)c2n1 [Purvalanol B]	cAMP-dependent protein kinase (Bos taurus, UniProt P00517)	3.8
